These measurements were taken from ChEMBL document CHEMBL2169878.

Assay Name: Apparent volume of distribution in CD1 albino mouse at 50 mg/kg, po
Type: ADME, organism-based
Design: dose 50 mg/kg, route oral
Measurement Context: in vivo, read-out: Vc/F
Quantity: Vd/F (L/kg)
One number for each entry, in L/kg.

Memo: Clc1ccc(C(Nc2ccnc3cc(Cl)ccc23)c2ccc(CN3CCNCC3)cc2)cc1 (racemic) , reported Vd/F: 153

----------
Test system: Salmonella typhimurium
Assay Name: Mutagenicity against Salmonella typhimurium TA100 assessed as revertants at 24 uM incubated for 90 mins followed by drug washout measured after 2 days relative to positive control
Assay type: toxicity, organism-based
Measurement Context: salmonella enterica subsp. enterica serovar typhimurium
I'd appreciate it if you could supply Activity values for the items below.

Example cases with answers are listed next.
Clc1ccc(C(Nc2ccnc3cc(Cl)ccc23)c2ccc(CN3CCCC3)c(Cl)c2)cc1 (racemic) ... 4%
Clc1ccc(C(Nc2ccnc3cc(Cl)ccc23)c2ccc(CN3CCNCC3)cc2)cc1 (racemic) ... 27%

Please give Activity, item by item, for the list that follows.
1. Clc1ccc2c(NC(c3ccccc3)(c3ccc(CN4CCCC4)c(Cl)c3)c3ccc(CN4CCCC4)c(Cl)c3)ccnc2c1
2. COc1ccc2nccc(NC(c3cccc(Cl)c3)c3ccc(CN4CCCC4)c(Cl)c3)c2c1 (racemic)

6%
5%
